system: Plasmodium falciparum; assay: Calibr Malaria Delayed Death Assay SOP; type: functional, organism-based; design: scale not given: in the data most compounds retested in dose-response had high values; conditions: concentration 4.99e-06 (unit not given; other assays of the set use mol/L)
The whole screen tested about 38,000 compounds, of which about 1,200 (3.2%) showed an effect of 50% or more. The median lay at about -58%. The sample as a whole holds a higher share of strong results than the screen did.
Quick reference for Percent Effect among some compounds
Measured Property: Percent Effect (%)

- Compound: "c1ccc(C2(NCC3CNc4ccnn4C3)CCC2)cc1 (stereo unspecified)"
  Measured Property: "Percent Effect"
  Reading: 13.04
- Compound: "Cc1nc2c(c(NCc3cc4ccccc4s3)n1)CCNCC2"
  Measured Property: "Percent Effect"
  Reading: 89.06
- Compound: "Fc1ccc(C2CCCCN2Cc2cc(-c3ccccn3)no2)cc1 (stereo unspecified)"
  Measured Property: "Percent Effect"
  Reading: -40.19
- Compound: "CC(Cc1ccccc1F)C(=O)Nc1cccc(OCC(N)=O)c1 (stereo unspecified)"
  Measured Property: "Percent Effect"
  Reading: -53.66
- Compound: "Cc1ncsc1C(=O)NCCNc1ncccc1C#N"
  Measured Property: "Percent Effect"
  Reading: -35.74
- Compound: "O=C(c1coc(COc2cccc3cnccc23)n1)N1CCCCCC1"
  Measured Property: "Percent Effect"
  Reading: 16.31
- Compound: "O=C(CNC(=O)C1(c2ccc(F)cc2F)CCC1)Nc1cccnc1"
  Measured Property: "Percent Effect"
  Reading: -130.4
- Compound: "CCn1cc(NC(=O)NCC(C)N(C)C)cn1 (stereo unspecified)"
  Measured Property: "Percent Effect"
  Reading: -90.57
- Compound: "CSCC(=O)N1CCc2nc(C)nc(NCc3ccccc3)c2CC1"
  Measured Property: "Percent Effect"
  Reading: -13.73
- Compound: "NC1CCCCN(Cc2cc(-c3ccccc3OC(F)(F)F)no2)C1 (stereo unspecified)"
  Measured Property: "Percent Effect"
  Reading: 70.63
- Compound: "COc1cccc(CN(C)C(=O)CN2CC(n3nc(C)cc3C)C2)c1"
  Measured Property: "Percent Effect"
  Reading: 62.45
- Compound: "O=C(O)C(F)(F)F.O=S(=O)(C1CC1)N1C[C@H]2CCC[C@@]2(COCc2ccccn2)C1"
  Measured Property: "Percent Effect"
  Reading: 2.137
- Compound: "Cc1cc(N2Cc3cnn(CCO)c3C2)nc(-c2ccccc2O)n1"
  Measured Property: "Percent Effect"
  Reading: -189
- Compound: "O=C(O)c1coc(COc2cccc3cnccc23)n1"
  Measured Property: "Percent Effect"
  Reading: -75.43
- Compound: "NC1CCCCN(Cc2cc(C3CCCCC3)no2)C1 (stereo unspecified)"
  Measured Property: "Percent Effect"
  Reading: 62.41
- Compound: "Cc1cc(C)n(C2CN(CC(=O)N(C)Cc3cnn(C)c3)C2)n1"
  Measured Property: "Percent Effect"
  Reading: -103.6
- Compound: "CCc1nc(C2CCCN2Cc2cnc(C)cn2)no1 (stereo unspecified)"
  Measured Property: "Percent Effect"
  Reading: -15.63
- Compound: "C[C@H](NC(=O)OC(C)(C)C)c1nnc(S(=O)(=O)Cc2cccc(F)c2)o1"
  Measured Property: "Percent Effect"
  Reading: -198.9
- Compound: "CC(=O)N(C)Cc1ccccc1NC(=O)c1ccccc1C"
  Measured Property: "Percent Effect"
  Reading: -129.3
- Compound: "COC(=O)c1ncccc1N1CCC(C(O)c2ccccc2)CC1 (stereo unspecified)"
  Measured Property: "Percent Effect"
  Reading: -12.82
- Compound: "COc1ccccc1CN(C)C(=O)CN1CC(n2nc(C)cc2C)C1"
  Measured Property: "Percent Effect"
  Reading: 77.58
- Compound: "Cc1nc2c(c(NCc3nc4ccccc4s3)n1)CCNCC2"
  Measured Property: "Percent Effect"
  Reading: 71.13
- Compound: "Cc1nc[nH]c1CN1CCN(C(=O)C2CC2)[C@H]2CS(=O)(=O)C[C@H]21"
  Measured Property: "Percent Effect"
  Reading: -108.2
- Compound: "CC(C)c1ccc(C(=O)N2CCOCC2CC(=O)c2ccco2)cn1 (stereo unspecified)"
  Measured Property: "Percent Effect"
  Reading: -33.41
- Compound: "O=C(NCCc1c[nH]c2ccccc12)C1(n2cnnn2)CCCCC1"
  Measured Property: "Percent Effect"
  Reading: -28.02
- Compound: "CC(Cn1cccn1)NC(=O)N1CCN(Cc2ccco2)CC1 (stereo unspecified)"
  Measured Property: "Percent Effect"
  Reading: -74.02
- Compound: "CC(C)NC(=O)C1CN(C(=O)Cc2ccccc2)CC12CCOCC2 (stereo unspecified)"
  Measured Property: "Percent Effect"
  Reading: -95.53
- Compound: "CS(=O)(=O)CC(=O)N1C[C@H]2CCC[C@@]2(COCc2ccncc2)C1.O=C(O)C(F)(F)F"
  Measured Property: "Percent Effect"
  Reading: -43.79
- Compound: "Cn1ccnc1CN1CCCN(C(=O)c2ccc3c(c2)OCO3)CC1"
  Measured Property: "Percent Effect"
  Reading: -109.5
- Compound: "CCN(CC)Cc1ccccc1NC(=O)N(C)Cc1ccc(OC)cc1"
  Measured Property: "Percent Effect"
  Reading: 39.65
- Compound: "Cc1cc(C)n(CC2CCCN2CC(=O)N(C)CCC#N)n1 (stereo unspecified)"
  Measured Property: "Percent Effect"
  Reading: -49.25
- Compound: "Cc1nc2c(c(NCc3ccc(-c4ccccn4)s3)n1)CCNCC2"
  Measured Property: "Percent Effect"
  Reading: 73.48
- Compound: "Cc1cc(C)n(C2CN(CC(=O)N(C)Cc3ccc(C)o3)C2)n1"
  Measured Property: "Percent Effect"
  Reading: -1.347
- Compound: "O=C(Cc1ccccn1)N1C[C@H]2CCC[C@@]2(COc2ccccn2)C1"
  Measured Property: "Percent Effect"
  Reading: -9.537
- Compound: "CN(C(=O)Cn1nc(-c2ccc(Cl)cc2)ccc1=O)C1CCS(=O)(=O)C1 (stereo unspecified)"
  Measured Property: "Percent Effect"
  Reading: 1.296
- Compound: "C[C@@H]1CN(Cc2cc(C3CCCCC3)no2)CC[C@]1(C)O"
  Measured Property: "Percent Effect"
  Reading: -5.788
- Compound: "CC(C)CC(=O)N1CC[C@H]2N(C)CC[C@@]2(C(=O)Nc2cccnc2)CC1.O=C(O)C(F)(F)F.O=C(O)C(F)(F)F"
  Measured Property: "Percent Effect"
  Reading: 15.37
- Compound: "Cc1ccc(OCCN(C)C2CCOC2=O)cc1 (stereo unspecified)"
  Measured Property: "Percent Effect"
  Reading: -120.6
- Compound: "Cc1cc(CN2CCC(c3nccn3C(C)C)CC2)ccc1F"
  Measured Property: "Percent Effect"
  Reading: 18.24
- Compound: "c1ccc(-c2nc3c(c(NCCCn4cncn4)n2)CCNCC3)nc1"
  Measured Property: "Percent Effect"
  Reading: -4.332
- Compound: "O=C(Nc1ccc(=O)n(Cc2ccccc2Cl)c1)C1CC1"
  Measured Property: "Percent Effect"
  Reading: -14.36
- Compound: "Cc1nc(N(C)C)nc2c1COCC21CCN(C(=O)C2CC2)C1 (stereo unspecified)"
  Measured Property: "Percent Effect"
  Reading: -124.4
- Compound: "Cc1cccc(N2CCN(CCS(=O)(=O)c3ccc(Br)cc3)CC2)c1C"
  Measured Property: "Percent Effect"
  Reading: -66.5
- Compound: "Cc1cc(C)n(C2CN(CC(=O)N(C)Cc3ccco3)C2)n1"
  Measured Property: "Percent Effect"
  Reading: -70.44
- Compound: "Cc1nc2c(c(NCC(c3ccccc3C)N(C)C)n1)CCNC2 (stereo unspecified)"
  Measured Property: "Percent Effect"
  Reading: -11.95
- Compound: "CC(=O)Nc1nc(C2CCN(C(=O)c3ccncc3)CC2)cs1"
  Measured Property: "Percent Effect"
  Reading: 10.73

Cited source for all entries: ChEMBL document CHEMBL3988442
